Listed here are compounds together with their documented IC90.
System: M. tuberculosis H37Rv growth inhibition
Assay Name: M. tuberculosis H37Rv growth inhibitors, H37Rv strain (AID 1626)
Condition Set: measured here: IC90 against H37Rv

# Structure String, IC90
records = [
    ("O=C(Nc1ccc(-c2csc(Nc3cccc(C(F)(F)F)c3)n2)cc1)c1cc([N+](=O)[O-])cc(C(F)(F)F)c1", "> 100 µM"),
    ("CCOC(=O)c1cnc(-n2nc(C)cc2C)nc1NCCc1ccccc1", "1.06 µM"),
    ("COc1ccc(C(=O)Nc2cc(OC)c(NC(=O)c3ccco3)cc2OC)cc1", "9.59 µM"),
    ("CCCCCCCCCCn1c2c(c(=N)c3c1CCC3)CCC2", "3.59 µM"),
    ("CCOc1ccc2nc(NC(=O)CSc3nnnn3C3CCCCC3)sc2c1", "> 100 µM"),
    ("CCCCCCCCC/C(=N\\O)c1ccccn1", "1.68 µM"),
    ("CCOC(=O)c1ccc(-n2c(CN(CC)CC)nc3ccc([N+](=O)[O-])cc3c2=O)cc1", "> 100 µM"),
    ("Cc1ccc(C(=O)Nc2nc(-c3ccccn3)cs2)o1", "6.19 µM"),
    ("c1csc(Cc2nn3c(-c4n[nH]c5c4CCC5)nnc3s2)c1", "11 µM"),
    ("Cc1ccc(-c2noc(-c3cc4ccccc4oc3=O)n2)cc1", "> 100 µM"),
    ("COc1ccc(N2Cc3ccccc3C2)cc1Cl", "> 100 µM"),
]
